The values you see were collected from patent US6620828B2.

- assayed_system: CDK2/Cyclin A complex (Homo sapiens, UniProt P24941)
- assay_procedure: CDK2/Cyclin A assay
- Type: biochemical
- test_settings: Table 2; at 10 (head μM)
Listed here are molecules together with their documented CDK2 % inhibition @ 10.

molecule	CDK2 % inhibition @ 10
Cc1c(F)cc(-c2csc(-c3sc(Nc4ccc(S(N)(=O)=O)cc4)nc3N)n2)cc1Cl [A(7)]	25% @
Nc1nc(Nc2ccc(S(N)(=O)=O)cc2)sc1-c1nc(-c2ccc(F)cc2)cs1 [A(5)]	27% @
Nc1nc(Nc2ccc(S(N)(=O)=O)cc2)sc1-c1nc(-c2ccc(Cl)cc2Cl)cs1 [A(6)]	36% @
Nc1nc(Nc2ccc(S(N)(=O)=O)cc2)sc1-c1nc(-c2ccc(F)cc2F)cs1 [A(4)]	57% @
COc1cc(Nc2nc(N)c(-c3noc(-c4ccsc4)n3)s2)cc(OC)c1OC [G(7)]	21% @

====

- assayed_system: CDK2/Cyclin A complex (Homo sapiens, UniProt P24941)
- assay_procedure: CDK2/Cyclin A assay
- Assay type: biochemical
- test_settings: 1.0 μM; combinatorial library compounds
Listed here are compounds together with their documented inhibition at 1 µM.
quantity_measured: inhibition at 1 µM (%)

Nc1nc(Nc2ccc(S(N)(=O)=O)cc2)sc1-c1nc(-c2ccc(C(F)(F)F)cc2)cs1 4.5
Cn1cc(-c2csc(-c3sc(Nc4ccc(S(N)(=O)=O)cc4)nc3N)n2)cc1C(=O)C(Cl)(Cl)Cl 23.2
Nc1nc(Nc2ccc(S(N)(=O)=O)cc2)sc1-c1nc(-c2ccc3oc4ccccc4c3c2)cs1 45.7
Cc1c(-c2csc(-c3sc(Nc4ccc(S(N)(=O)=O)cc4)nc3N)n2)sc2ccccc12 9.2
CN(C)c1ccc(Nc2nc(N)c(-c3nc(-c4ccc5ccccc5c4)cs3)s2)cc1 26.9
CN(C)c1ccc(Nc2nc(N)c(-c3nc(-c4ccc5c(c4)C(C)(C)CCC5(C)C)cs3)s2)cc1 3.1
CC(C)c1ccc(Nc2nc(N)c(-c3nc(-c4cc(C(C)(C)C)c(O)c(C(C)(C)C)c4)cs3)s2)cc1 20.9
CC(C)c1ccc(Nc2nc(N)c(-c3nc(-c4ccc(Cl)c(Cl)c4)cs3)s2)cc1 10.4
CCOC(=O)c1ccccc1-c1csc(-c2sc(Nc3ccc(C(C)C)cc3)nc2N)n1 29.2

====

- assayed_system: CDK2/Cyclin A complex (Homo sapiens, UniProt P24941)
- assay_procedure: CDK2/Cyclin A assay
- Assay type: biochemical
- Design: concentration or dose not given beside the values
- test_settings: Table A combinatorial examples; footnote c not given
quantity_measured: CDK2^c

COc1cc(Nc2nc(N)c(-c3nc(-c4ccc(Cl)c(Cl)c4)cs3)s2)cc(OC)c1OC 7.3
CCOC(=O)c1cc(-c2csc(-c3sc(Nc4cc(OC)c(OC)c(OC)c4)nc3N)n2)on1 23.2
COc1cc(Nc2nc(N)c(-c3nc(-c4csc5ccccc45)cs3)s2)cc(OC)c1OC 9.1
COc1ccccc1-c1csc(-c2sc(Nc3cc(OC)c(OC)c(OC)c3)nc2N)n1 −3.5
COc1cc(Nc2nc(N)c(-c3nc(-c4c(-c5ccccc5)noc4C)cs3)s2)cc(OC)c1OC 13.6
COc1ccc(OC)c(-c2csc(-c3sc(Nc4cc(OC)c(OC)c(OC)c4)nc3N)n2)c1 12.2
COc1cc(Nc2nc(N)c(-c3nc(-c4cc(F)c(C)c(Cl)c4)cs3)s2)cc(OC)c1OC −7.5
COc1cc(Nc2nc(N)c(-c3nc(-c4cc(-c5ccccc5)no4)cs3)s2)cc(OC)c1OC 11.2
COc1cc(Nc2nc(N)c(-c3nc(-c4cc(C)sc4C)cs3)s2)cc(OC)c1OC 7.3
